Each entry below carries its recorded growth.
- Tested on: NCI-H226 lung
- run.description: NCI-60 one-dose screen, 48 h (100 = growth as untreated, 0 = no growth, -100 = all killed)
- condition.summary: 10 µM unless noted
The panel holds about 83,000 compounds, 20% with a hit somewhere; the sample as a whole holds those more often.
property.name: growth (%)

[[record]]
molecule = "COc1cc[c]([Hg][Cl])cc1"
measured_number = 100

[[record]]
molecule = "O=C(N/N=C/c1ccc([N+](=O)[O-])o1)c1cc([N+](=O)[O-])cc([N+](=O)[O-])c1O"
measured_number = 97.9

[[record]]
molecule = "CCN(CC)CCOc1c(C(C)C)cccc1C(C)C"
measured_number = 111

[[record]]
molecule = "CC[CH2][Pb]([CH2]CC)([CH2]CC)[O]C(=O)C(F)(F)F"
measured_number = -61.6

[[record]]
molecule = "O=C(O)c1cccc(CCl)c1"
measured_number = 104

[[record]]
molecule = "CC12CCC(=O)C=C1CCC1C2CCC2(C)C(C(=O)COC(=O)Cc3ccc(N(CCCl)CCCl)cc3)CCC12 (stereo unspecified)"
measured_number = 72.5

[[record]]
molecule = "O=C(Nc1ccc(S(=O)(=O)F)cc1)Oc1ccccc1"
measured_number = 99.5

[[record]]
molecule = "CCOC(=O)C1(c2ccccc2)CCN(CC(=O)c2ccc(NC(C)=O)cc2)CC1"
measured_number = 107

[[record]]
molecule = "Cc1cc([N+](=O)[O-])c(Cl)cc1NS(=O)(=O)c1ccccc1"
measured_number = 64.7

[[record]]
molecule = "CNC(=O)Oc1ccccc1-c1ccccc1"
measured_number = 113

[[record]]
molecule = "O=[N+]([O-])c1ccc(F)c([N+](=O)[O-])c1F"
measured_number = 100


---

- System: HL-60(TB) leukemia
- run.description: NCI-60 one-dose screen, 48 h (100 = growth as untreated, 0 = no growth, -100 = all killed)
- condition.summary: 10 µM unless noted
About 83,000 compounds went through this panel and 20% of them were active in at least one assay; those are over-represented in the sample as a whole.
property.name: growth (%)

[[record]]
compound = "O=c1c2cc(F)ccc2sc2c(NCCO)nc3ccccc3c12"
reading_unit = "%"
measured_number = 91.9

[[record]]
compound = "CC(C)c1nc2ccccc2n1CC(=O)N/N=C/c1cccc(O)c1"
reading_unit = "%"
measured_number = 86.5

[[record]]
compound = "COc1cc(C2C(C#N)=C(c3c[nH]c4ccccc34)Nc3nc(N)[nH]c(=O)c32)cc(OC)c1OC (stereo unspecified)"
reading_unit = "%"
measured_number = 42.1

[[record]]
compound = "CC1=C(CCC(C)NCc2ccc(OCCCN3CCCCC3)cc2)C(C)(C)CCC1 (stereo unspecified)"
reading_unit = "%"
measured_number = -68.7

[[record]]
compound = "O=C(Nc1ccncc1)C(=O)c1cn(S(=O)(=O)c2ccc(Cl)cc2)c2ccccc12"
reading_unit = "%"
measured_number = 18.3

[[record]]
compound = "CCN(CC)c1ccc(CNc2ccnc3ccccc23)cc1"
reading_unit = "%"
measured_number = 33.6

[[record]]
compound = "COc1ccc2[nH]c(=O)c(CNc3ccc(Nc4nccc(-c5ccc(Cl)cc5)n4)cc3)cc2c1"
reading_unit = "%"
measured_number = 78.2

[[record]]
compound = "CC(=O)Nc1ccc(S(=O)(=O)c2ccnc3cc(Cl)ccc23)cc1"
reading_unit = "%"
measured_number = 87

[[record]]
compound = "COc1cc2c(cc1O)[C@@]1(C)[C@H](c3ccccc3Br)OC(=O)N1CC2"
reading_unit = "%"
measured_number = 73.3

[[record]]
compound = "CCOC(=O)c1c(C=O)nc2ccccc2c1/C=C/c1ccc(Cl)cc1"
reading_unit = "%"
measured_number = 69.7

[[record]]
compound = "Cc1cccc(N=Cc2ccccc2O)c1C"
reading_unit = "%"
measured_number = 87.9


Measured values drawn from PubChem BioAssay (NCI) for this set.
